The reported measurements were obtained from PubChem BioAssay (NCI).

What growth was measured for each of the following?
System: HCC-2998 colon
EXPERIMENTAL DETAILS: NCI-60 one-dose screen, 48 h (100 = growth as untreated, 0 = no growth, -100 = all killed)
CONDITION SUMMARY: 10 µM unless noted
The panel holds about 83,000 compounds, 20% with a hit somewhere; the sample as a whole holds those more often. Activity calls are given as the source filed them. How the source made its calls: active means growth percent below 10; inactive means the rest.

// below: answered molecules
MOLECULE | EXPERIMENTAL TARGET | MEASURED VALUE
CCCn1cnc2c1c(=O)n(CCCCC(C)=O)c(=O)n2C | HCC-2998 colon | 100% (inactive)
Clc1ccc2c(Nc3ccc4oc(NCCN5CCCC5)nc4c3)ccnc2c1 | HCC-2998 colon | 76% (inactive)
CSc1nc2c(c(=O)n1C)C(c1ccccc1)C1=C(N2)/C(=C/c2ccccc2)CCC1 (stereo not given) | HCC-2998 colon | 71.4% (inactive)
COc1ccc(-c2cc(C(=O)Nc3nc4cc(C)c(C)cc4s3)nc3cc(-c4ccccc4)nn23)cc1OC | HCC-2998 colon | 99.7% (inactive)
COc1ccc2[nH]cc(/C=C3/C(=O)Nc4ccc(F)cc43)c2c1 | HCC-2998 colon | 93% (inactive)

For the 2 molecules below, give their growth values.
1. O=C(N1CCC(CN=c2cc3n(-c4ccc(Cl)cc4)c4ccccc4nc-3cc2Nc2ccc(Cl)cc2)CC1)N1CC1
2. Oc1ccccc1C=Nc1ccccc1N=Cc1ccccc1O.[Cu+2]

1. -75.9% (active)
2. 74.2% (inactive)

Hi! Can you tell me growth for each of these molecules?
1. COc1ccc(C(=O)Nc2nc(-c3ccc(Cl)cc3)cs2)cc1
2. COc1cccc(/C=C2\COc3ccc(O)c(O)c3C2=O)c1OC

["112% (inactive)", "78.6% (inactive)"]

The following molecules each have a reported value; give each one's growth.
1. O=C1CC(C(F)(F)F)=NN1C(=O)c1nn(-c2ccc(Cl)cc2)cc1O
2. COc1cc(/C=C/C(=O)N2CCN(C(=O)/C=C/c3ccccc3)CC2)cc(OC)c1OC
3. CC12CCCCC1C(C(N)=O)C(=O)O2 (stereo not given)
4. CC[C@]1(O)CC2CN(CCc3c([nH]c4ccccc34)[C@@](C(=O)OC)(c3cc4c(cc3OC)N(C)[C@H]3[C@@](O)(C(=O)OC)[C@H](OC(C)=O)[C@]5(CC)C=CCN6CC[C@]43[C@@H]65)C2)C1 (stereo not given in full)
5. CC1=CSC2=NCCN12

89.7% (inactive)
102% (inactive)
99.6% (inactive)
-23.4% (active)
108% (inactive)

Quick request: growth for each listed item, please.
1. C[n+]1ccc(Nc2ccc(NC(=O)c3ccc(Nc4cc[n+](C)c5ccc(N)cc45)cc3)cc2)cc1
2. COC(=O)CC1=C(C)/C(=C/c2[nH]c(-c3ccc[nH]3)cc2OC)N=C1C
3. Cc1ccc(C(=O)Nc2ccc(Cl)cc2C(=O)NCc2ccccc2)cc1
4. C[C@]12CC[C@@H]3c4ccc(O)cc4CC[C@H]3[C@@H]1CC[C@@H]2NS(=O)(=O)c1cccc(Br)c1

1: -27.7% (active); 2: 11.3% (inactive); 3: 86.9% (inactive); 4: 89.4% (inactive)

Could I get growth for every one of these entries?
1. Cc1cccc(Cl)c1NC(=O)c1ccc2nc(NC(=O)NC3CC(C)(C)NC(C)(C)C3)sc2c1
2. COc1ccc(C(=O)COc2cccc(/C=C3\Oc4ccc5ccccc5c4C3=O)c2)cc1

1. 96.5% (inactive)
2. 60% (inactive)
